Sourced from patent US20060009493A1

targetDesc: GST fusion protein containing the Met kinase domain (Homo sapiens)
Construct: Purified GST fusion protein containing the Met kinase domain, Sugen, Inc
Sequence (P08581 1078-1345 limits assumed): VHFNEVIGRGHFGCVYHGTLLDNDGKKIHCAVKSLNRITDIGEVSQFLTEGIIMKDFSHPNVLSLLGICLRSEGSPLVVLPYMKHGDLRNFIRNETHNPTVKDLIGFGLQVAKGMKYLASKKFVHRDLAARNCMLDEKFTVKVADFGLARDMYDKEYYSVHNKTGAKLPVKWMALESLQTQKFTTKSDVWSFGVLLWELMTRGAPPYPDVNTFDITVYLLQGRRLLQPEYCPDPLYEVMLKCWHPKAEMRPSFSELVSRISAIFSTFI
testDetails: MET Transphosphorylation Assay (ELISA, poly(Glu,Tyr) 4:1 substrate)
conditionSet: met transphosphorylation of poly(glutamic acid:tyrosine 4:1) substrate; two values in a cell separated by '/'
Threshold check on IC50: strictly below 0.04 µM is 1 (yes); on or above 0.04 µM is 0 (no).

The examples below pair each entry with its known result.
compound: O=C(Cc1ccc(O)c(F)c1)N/N=C1\C(=O)Nc2ccccc21
targetDesc: GST fusion protein containing the Met kinase domain (Homo sapiens)
group: 0 (no)
//
compound: O=C(Cc1ccc(O)cc1)N/N=C1\C(=O)Nc2ccc([N+](=O)[O-])cc21
targetDesc: GST fusion protein containing the Met kinase domain (Homo sapiens)
group: 0 (no)
//
compound: O=C(Cc1ccc(O)cc1)N/N=C1\C(=O)Nc2ccc(OC(F)(F)F)cc21
targetDesc: GST fusion protein containing the Met kinase domain (Homo sapiens)
group: 0 (no)

[ask] Does the reported IC50 of the following compound sit strictly below 0.04 µM? COc1ccc2c(c1)/C(=N/NC(=O)Cc1ccc(O)cc1)C(=O)N2
[reply] 0 (no)

[ask] Does the reported IC50 of the following compound sit strictly below 0.04 µM? O=C(Cc1ccc(O)nc1)N/N=C1\C(=O)Nc2c(Cl)ccc(Cl)c21
[reply] 1 (yes)

[ask] Does the reported IC50 of the following compound sit strictly below 0.04 µM? COc1ccc2c(c1Cl)/C(=N/NC(=O)C(C)c1ccc(O)cc1)C(=O)N2 (stereo not drawn)
[reply] 0 (no)

[ask] Does the reported IC50 of the following compound sit strictly below 0.04 µM? O=C(CCc1ccc(O)cc1)N/N=C1\C(=O)Nc2ccccc21 [II-25]
[reply] 0 (no)

[ask] Does the reported IC50 of the following compound sit strictly below 0.04 µM? O=C(Cc1ccc(O)cc1)N/N=C1\C(=O)Nc2cccc(Cl)c21
[reply] 1 (yes)

[ask] Does the reported IC50 of the following compound sit strictly below 0.04 µM? Cn1cc(CC(=O)N/N=C2\C(=O)Nc3cc(Cl)c(C(=O)NCCN4CCOCC4)cc32)ccc1=O
[reply] 0 (no)

[ask] Does the reported IC50 of the following compound sit strictly below 0.04 µM? CC(C(=O)N/N=C1\C(=O)Nc2ccc(O)c(Cl)c21)c1ccc(F)cc1 (stereo not drawn)
[reply] 0 (no)

[ask] Does the reported IC50 of the following compound sit strictly below 0.04 µM? CSc1ccc(CC(=O)N/N=C2\C(=O)Nc3ccccc32)cc1
[reply] 0 (no)

[ask] Does the reported IC50 of the following compound sit strictly below 0.04 µM? O=C(Cc1ccc(O)cc1)N/N=C1\C(=O)Nc2ccc(C(=O)N3CCC(NC4CC4)CC3)c(Cl)c21
[reply] 1 (yes)

[ask] Does the reported IC50 of the following compound sit strictly below 0.04 µM? CC(C(=O)N/N=C1\C(=O)Nc2c(Cl)ccc(Cl)c21)c1ccc(O)cc1 (stereo not drawn)
[reply] 1 (yes)

[ask] Does the reported IC50 of the following compound sit strictly below 0.04 µM? Cc1ccc(CC(=O)N/N=C2\C(=O)Nc3ccccc32)cc1
[reply] 0 (no)

[ask] Does the reported IC50 of the following compound sit strictly below 0.04 µM? O=C(Cc1ccc2c(c1)OCO2)N/N=C1\C(=O)Nc2ccc(Br)cc21
[reply] 0 (no)

[ask] Does the reported IC50 of the following compound sit strictly below 0.04 µM? Cn1cc(CC(=O)N/N=C2\C(=O)Nc3c(Cl)ccc(Cl)c32)ccc1=O
[reply] 0 (no)

[ask] Does the reported IC50 of the following compound sit strictly below 0.04 µM? CC(C(=O)N/N=C1\C(=O)Nc2ccc(C#CCN(C)C)cc21)c1ccc(F)cc1 (stereo not drawn)
[reply] 0 (no)

[ask] Does the reported IC50 of the following compound sit strictly below 0.04 µM? Cc1c(Br)ccc2c1/C(=N/NC(=O)Cc1ccc(O)cc1)C(=O)N2
[reply] 1 (yes)
